system: Wolbachia pipientis; assay: Anti-Wolbachia Cell-Based Screen; format: functional; design: scale not given: in the data most compounds retested in dose-response had high values; conditions: 5 µM
In all, about 48,000 compounds went through this assay and about 13,000 (27%) showed an effect of 50% or more. The list shows a part of the results.
Kindly return 1 if reported Percent Effect is no lower than 10%; return -1 if it is lower.

Input line: Could you verify whether the entry `CN(C)C(=O)NCc1cc2n(n1)CCN(C[C@H]1[C@@H]3CNC[C@@H]31)C2` shows Percent Effect of no less than 10%?
Output line: -1

Input line: Could you verify whether the entry `Cc1cccc(NC2CCN(C(=O)Nc3ccccn3)CC2)n1` shows Percent Effect of no less than 10%?
Output line: 1

Input line: Could you verify whether the entry `Cc1cccc(NC2CCN(C(=O)Nc3cn[nH]c3)CC2)n1` shows Percent Effect of no less than 10%?
Output line: 1

----------
tested on: Wolbachia pipientis; test: Anti-Wolbachia Cell-Based Screen; format: functional; parameters: scale not given: in the data most compounds retested in dose-response had high values; settings: 5 µM
In all, about 48,000 compounds went through this assay and about 13,000 (27%) showed an effect of 50% or more. The list shows a part of the results.
endpointName: Percent Effect (%)
Response body: numeric value in %, unit text excluded.

Worked set:
[
  {
    "structureSmilesString": "CC(C)c1nc2c(n1C)CCN(CCc1ccccn1)C2",
    "unitName": "%",
    "valueReported": 5.197
  },
  {
    "structureSmilesString": "Cc1cccc(CN2C(=O)C[C@H]3[C@@H]2CCN3Cc2ccc(F)cc2)n1.O=C(O)C(F)(F)F.O=C(O)C(F)(F)F",
    "unitName": "%",
    "valueReported": 93.32
  },
  {
    "structureSmilesString": "Cc1nn(C)c(C)c1NC(=O)CN1CCc2c(nc(C(C)C)n2C)C1",
    "unitName": "%",
    "valueReported": -19.45
  }
]

Input line: Name the recorded Percent Effect for `Cc1cccc(CN2C(=O)CC[C@@H]3[C@H]2CCN3C(=O)c2ccsc2)n1.O=C(O)C(F)(F)F` .
Output line: -10.27

Input line: Name the recorded Percent Effect for `CC(C)c1nc2c(n1C)CCN(CC(=O)Nc1ccc(Cl)cn1)C2` .
Output line: 6.553

Input line: Name the recorded Percent Effect for `Cc1cccc(CN2C(=O)CC[C@@H]3[C@H]2CCN3Cc2cccnc2)n1.O=C(O)C(F)(F)F.O=C(O)C(F)(F)F.O=C(O)C(F)(F)F` .
Output line: -1.034

Input line: Name the recorded Percent Effect for `CC(C)c1nc2c(n1C)CCN(CC(=O)Nc1ccnn1C(C)C)C2` .
Output line: 120.4

Input line: Name the recorded Percent Effect for `Cc1cccc(CN2C(=O)CC[C@@H]3[C@H]2CCN3Cc2ccc(F)cc2)n1.O=C(O)C(F)(F)F.O=C(O)C(F)(F)F` .
Output line: -9.661

----------
Recorded Percent Effect, one value per entry.
tested on: Wolbachia pipientis; assay: Anti-Wolbachia Cell-Based Screen; assay type: functional; parameters: scale not given: in the data most compounds retested in dose-response had high values; settings: 5 µM
Among all 48,000 compounds or so, about 13,000 (27%) showed an effect of 50% or more. Some of the results follow.
Response body: numeric value in %, unit text excluded.

[
  {
    "molecule": "Cc1nc(C)n(CC2CCCN(c3ncnc4ccccc34)C2)n1 (centres undefined)",
    "testSystem": "Wolbachia pipientis",
    "unitName": "%",
    "valueReported": 143.5
  },
  {
    "molecule": "Cc1nccn1CCC1CCCCN1C(=O)c1ccc2[nH]nnc2c1 (centres undefined)",
    "testSystem": "Wolbachia pipientis",
    "unitName": "%",
    "valueReported": -0.5329
  },
  {
    "molecule": "Cc1c(NCCCOc2cccc(C#N)c2)cccc1C(N)=O",
    "testSystem": "Wolbachia pipientis",
    "unitName": "%",
    "valueReported": -5.343
  },
  {
    "molecule": "Cc1cccc(NC(=O)N2CCOCC(CN(C)C)C2)c1C (centres undefined)",
    "testSystem": "Wolbachia pipientis",
    "unitName": "%",
    "valueReported": -12.45
  }
]

Input line: Name the recorded Percent Effect for Cc1nc(C)n(CC2CCCN(c3ccc(C#N)cn3)C2)n1 (centres undefined) .
Output line: 123

Input line: Name the recorded Percent Effect for Cc1nc(C)n(CC2CCCN(c3ncnc4ccsc34)C2)n1 (centres undefined) .
Output line: -4.048

Input line: Name the recorded Percent Effect for O=C(c1cncs1)N1CCOCC(Cc2ccccn2)C1 (centres undefined) .
Output line: 121.8

----------
tested on: Wolbachia pipientis; experiment: Anti-Wolbachia Cell-Based Screen; format: functional; design: scale not given: in the data most compounds retested in dose-response had high values; settings: 5 µM
The whole screen tested about 48,000 compounds, of which about 13,000 (27%) showed an effect of 50% or more. The list shows a part of the results.
endpointName: Percent Effect (%)
Response body: numeric value in %, unit text excluded.

[
  {
    "molecule": "CC(C)c1ocnc1C(=O)NC1(c2cccc(F)c2)CCOCC1",
    "unitName": "%",
    "Percent Effect": -15.1
  }
]

Input line: Name the recorded Percent Effect for `Cc1ccc(N(Cc2ccco2)C(=O)CC2=NN(C)C(=O)C2)cc1` .
Output line: 134.3

Input line: Name the recorded Percent Effect for CC(CC#N)N1CCN(C(=O)OC(C)(C)C)CC1 (centres undefined) .
Output line: -8.127

Input line: Name the recorded Percent Effect for N#CC1(C(=O)N2Cc3cc(-c4cc[nH]n4)ccc3C2c2cnco2)CC1 (centres undefined) .
Output line: -31.27

Input line: Name the recorded Percent Effect for O=C(NC(Cc1ccsc1)c1nccs1)C1CCOCC1 (centres undefined) .
Output line: -7.907

----------
system: Wolbachia pipientis; experiment: Anti-Wolbachia Cell-Based Screen; type: functional; parameters: scale not given: in the data most compounds retested in dose-response had high values; conditions: 5 µM
Hit rate of the full screen: of about 48,000 compounds, about 13,000 (27%) showed an effect of 50% or more. Some of the results follow.
endpointName: Percent Effect (%)
Response body: numeric value in %, unit text excluded.

Worked set:
[
  {
    "compound": "Cc1cccc(NC(=O)CN(C)C(=O)c2scnc2C)n1",
    "endpointName": "Percent Effect",
    "unitName": "%",
    "valueReported": 117.3
  },
  {
    "compound": "CS(=O)(=O)N1CCCC12CCCN(S(=O)(=O)c1ccc(F)c(F)c1)C2 (stereo unspecified)",
    "endpointName": "Percent Effect",
    "unitName": "%",
    "valueReported": 90.35
  },
  {
    "compound": "CNC(=O)NCC(CO)Cc1cccc(OC(F)(F)F)c1 (stereo unspecified)",
    "endpointName": "Percent Effect",
    "unitName": "%",
    "valueReported": 137.5
  },
  {
    "compound": "O=C(c1ncoc1C1CC1)N1CCCN(CCCc2ccccc2)CC1",
    "endpointName": "Percent Effect",
    "unitName": "%",
    "valueReported": 104.8
  }
]

Input line: Name the recorded Percent Effect for CC(NCc1cccc(NC(=O)C2CCCCC2)c1)c1cnn(C)c1 (stereo unspecified) .
Output line: 104.4

Input line: Name the recorded Percent Effect for CC(CNC(=O)c1cnccn1)Oc1cccc(Br)c1 (stereo unspecified) .
Output line: -3.895

----------
test system: Wolbachia pipientis; assay: Anti-Wolbachia Cell-Based Screen; format: functional; set-up: scale not given: in the data most compounds retested in dose-response had high values; conditions: 5 µM
Hit rate of the full screen: of about 48,000 compounds, about 13,000 (27%) showed an effect of 50% or more. Some of the results follow.
endpointName: Percent Effect

Worked set:
[
  {
    "compound": "COCCc1ncc(CN2CCC3(CCCN(CC4CC4)C3)C2)cn1 (centres undefined)",
    "Percent Effect": "106.1%"
  },
  {
    "compound": "CCN1CC(C(=O)N2CCC(Oc3ccccc3Cl)CC2)CC1=O (centres undefined)",
    "Percent Effect": "19.99%"
  },
  {
    "compound": "O=C(C1CCC1)N1CCC(=O)N(C2CC2)Cc2cc(F)ccc21",
    "Percent Effect": "89.78%"
  },
  {
    "compound": "CC(C)c1nccn1C1CCCN(C(=O)c2cccc3[nH]ncc23)C1 (centres undefined)",
    "Percent Effect": "-3.235%"
  },
  {
    "compound": "CC(CCSc1ccccc1)N1CCN(C(=O)c2ccccc2O)CC1 (centres undefined)",
    "Percent Effect": "4.975%"
  },
  {
    "compound": "Cc1ccc(N2CCN(C(=O)COc3nccc(C)n3)CC2)nn1",
    "Percent Effect": "-17.48%"
  },
  {
    "compound": "Cc1ccnc(OCC(=O)N2CCC(C(N)=O)CC2)n1",
    "Percent Effect": "-0.2918%"
  },
  {
    "compound": "O=C(Cn1nnn(-c2cccs2)c1=O)NCC1CCOC1 (centres undefined)",
    "Percent Effect": "8.767%"
  },
  {
    "compound": "COc1ccc(C(=O)N2C[C@H]3CC[C@@H]2CN(C)C3)cc1Cl",
    "Percent Effect": "-11.94%"
  },
  {
    "compound": "O=C1NCCCCC1NC(=O)N1CCCc2cc(F)ccc21 (centres undefined)",
    "Percent Effect": "-6.196%"
  }
]

Turning to the following compound.
Input line: Name the recorded Percent Effect for `O=C1N[C@@H]2CCN(C(=O)C3CCC3)[C@@H]2C(=O)N1c1ccc(F)cc1` .
Output line: 10.21%
